- test.description: P-glycoprotein substrates identified in KB-8-5-11 adenocarcinoma cell line, qHTS therapeutic library screen (AID 1346987); also: nearly all actives have a fitted effect of over 65% in size; as to activity change, negative = cytotoxicity: % is scaled to controls: 0 for no effect and ±100 for the full control effect
- condition.notes: KB-8-5-11 (P-gp overexpressing) viability, CellTiter-Glo, 72 h; series mostly up to 44.5 µM
Results filed as inconclusive are left out. The source made the active and inactive calls. Calls follow the shape of the dose curve; as a rule, active = well fitted inhibition curve with a large enough effect; inconclusive = small, poorly fitted or top-dose-only effect; inactive = flat fitted curve, though single readings scatter.

molecule	activity change, negative = cytotoxicity
C[C@]12C=CC(=O)N[C@@H]1CC[C@@H]1[C@@H]2CC[C@]2(C)[C@@H](C(=O)Nc3cc(C(F)(F)F)ccc3C(F)(F)F)CC[C@@H]12	inactive
CC(C)CC(=O)OC[C@H]1O[C@@](COC(=O)CC(C)C)(O[C@H]2O[C@H](CO)[C@@H](O)[C@H](O)[C@H]2OC(=O)CC(C)C)[C@@H](OC(=O)CC(C)C)[C@@H]1O	inactive
CC1CCC2(C(=O)OC3OC(COC4OC(CO)C(O)C(O)C4O)C(O)C(O)C3O)CCC3(C)C(=CCC4C5(C)CCC(O)C(C)(C(=O)O)C5CCC43C)C2C1(C)O (stereo not drawn)	1.52% [at 9.29 µM] (inactive)

----------
- test.description: qHTS Assay for Identifying Gametocytocidal Compounds (AID 743244);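 also: % is scaled to controls: 0 for no effect and ±100 for the full control effect; actives lower the fluorescent signal which means gametocytes are killed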
- condition.notes: P. falciparum 3D7 stage III-V gametocytes, alamarBlue, 72 h; hits give low values
Records with an inconclusive call do not appear. The source made the active and inactive calls. Calls follow the shape of the dose curve; as a rule, active = well fitted curve in the direction sought with a large enough effect; inconclusive = small, poorly fitted or top-dose-only effect, or another doubt; inactive = no such curve, though single readings can be large or run the other way.
experimental.readout: max response

These recorded examples may help you get a feel for the data.
In [3]: df
Out[3]:
                                   compound            result
0  CC(=O)N(CC(C)C(=O)O)c1c(I)cc(I)c(N)c1I (stereo not given)  4.12% (inactive)
1                C#CCOc1ccc2c(C)cc(=O)oc2c1  7.39% (inactive)
2  O=C(O)CC/C=C\CC[C@H]1[C@@H](N2CCCCC2)[C@@H](O)C[C@@H]1OCc1ccc(-c2ccccc2)cc1  3.93% (inactive)
3  CC1(C)S[C@@H]2[C@H](NC(=O)C(C(=O)O)c3ccsc3)C(=O)N2[C@H]1C(=O)O (stereo not given in full)  10.2% (inactive)

Exercise: Which value of max response has been reported for CC(C)NCC1CCc2cc(CO)c([N+](=O)[O-])cc2N1 (stereo not given) in the records?
Key: -6.43% (inactive)

----------
- System: Tov112D
- test.description: Primary qHTS to identify gynecologic anti-cancer compounds using libraries of approved drugs and bioactive compounds (AID 1345084); also: potency is read from the fitted curve at half-maximal effect; nearly all actives have a fitted effect of over 55% in size
- condition.notes: Gynecologic cancer cell panel viability, ATPlite luminescence, 48 h; series mostly up to 57.5 µM
Records with an inconclusive call do not appear. Active and inactive are the calls of the source. The call rests on the fitted dose curve; in most records, active means well fitted cell-killing curve with a large enough effect; inconclusive means small, poorly fitted or top-dose-only effect, or effect the other way; inactive means flat fitted curve, though single readings scatter.
Measured Potency of individual entries

These recorded examples may help you get a feel for the data.
                                   compound             result
0  CN(C)C/C=C/C(=O)Nc1ccc(C(=O)Nc2cccc(Nc3ncc(Cl)c(-c4c[nH]c5ccccc45)n3)c2)cc1  0.631 µM (active)
1  COc1ccc(C[C@H](N)C(=O)N[C@H]2[C@@H](O)[C@H](n3cnc4c(N(C)C)ncnc43)O[C@@H]2CO)cc1      2 µM (active)
2  CNC(=O)c1ccc(Nc2ncc(C(F)(F)F)c(NCc3nccnc3N(C)S(C)(=O)=O)n2)cc1   22.4 µM (active)
3  COc1cc(N2CCC(N(C)C)CC2)ccc1Nc1ncc(Cl)c(Nc2ccccc2P(C)(C)=O)n1     10 µM (active)
4  COc1cc2c(Nc3ccc(Cl)c(Cl)c3F)ncnc2cc1OCC1C[C@@H]2CN(C)C[C@@H]2C1 (some centres not stated)   17.8 µM (active)

Exercise: Which value of Potency has been reported for O=C(O)C[C@H](O)C[C@H](O)/C=C/c1c(C2CC2)nc2ccccc2c1-c1ccc(F)cc1 in the records?
Key: 11.2 µM (active)

Exercise: Which value of Potency has been reported for CC(=O)c1cnc2ccc(-c3cc(Cl)c(O)c(Cl)c3)nc2c1NC1CCC(CN(C)C)CC1 (configuration not stated) in the records?
Key: 0.447 µM (active)
